Quick list: Kd per entry.
# ASSAY_TARGET: Recombinant human his-tagged IGF R extracellular domain protein (human) (UniProt P08069)
# METHOD_NOTES: SPR, Ab captured via anti-huIgG Fc, pH 7.4
Response body: numeric value in pM, unit text excluded.

Here is how some binders turned out for Kd.
VRDN-02063 (antibody, V domains shown) VH: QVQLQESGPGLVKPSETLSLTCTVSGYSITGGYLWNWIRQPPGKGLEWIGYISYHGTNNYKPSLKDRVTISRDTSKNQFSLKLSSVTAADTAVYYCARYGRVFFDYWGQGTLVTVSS VL: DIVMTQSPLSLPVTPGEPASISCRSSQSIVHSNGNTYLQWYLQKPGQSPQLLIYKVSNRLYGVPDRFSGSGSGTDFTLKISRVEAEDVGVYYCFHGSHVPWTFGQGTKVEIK = 190
VRDN-02069 (antibody, V domains shown) VH: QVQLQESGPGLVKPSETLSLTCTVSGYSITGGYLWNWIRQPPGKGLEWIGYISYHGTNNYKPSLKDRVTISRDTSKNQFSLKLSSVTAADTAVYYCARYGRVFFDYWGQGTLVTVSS VL: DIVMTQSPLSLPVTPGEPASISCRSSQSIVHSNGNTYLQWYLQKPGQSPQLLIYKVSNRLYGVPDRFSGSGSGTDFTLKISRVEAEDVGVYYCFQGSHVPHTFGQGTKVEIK = 137
VRDN-02036 (antibody, V domains shown) VH: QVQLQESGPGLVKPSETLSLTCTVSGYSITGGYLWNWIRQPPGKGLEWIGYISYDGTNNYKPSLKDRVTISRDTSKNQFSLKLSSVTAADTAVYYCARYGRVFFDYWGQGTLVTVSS VL: DIVMTQSPLSLPVTPGEPASISCRSSQSIVHHNGNTYLQWYLQKPGQSPQLLIYKVSNRLYGVPDRFSGSGSGTDFTLKISRVEAEDVGVYYCFQGSHVPWTFGQGTKVEIK = 444
VRDN-02002 (antibody, V domains shown) VH: QVQLQESGPGLVKPSETLSLTCTVSGHSITGGYLWNWIRQPPGKGLEWIGYISYDGTNNYKPSLKDRVTISRDTSKNQFSLKLSSVTAADTAVYYCARYGRVFFDYWGQGTLVTVSS VL: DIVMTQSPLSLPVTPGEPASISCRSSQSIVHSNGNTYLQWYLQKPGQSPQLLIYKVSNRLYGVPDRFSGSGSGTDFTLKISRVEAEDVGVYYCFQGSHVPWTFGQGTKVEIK = 992
VRDN-02020 (antibody, V domains shown) VH: QVQLQESGPGLVKPSETLSLTCTVSGYSITGGYLWNWIRQPPGKGLEWIGYISYDGTNHYKPSLKDRVTISRDTSKNQFSLKLSSVTAADTAVYYCARYGRVFFDYWGQGTLVTVSS VL: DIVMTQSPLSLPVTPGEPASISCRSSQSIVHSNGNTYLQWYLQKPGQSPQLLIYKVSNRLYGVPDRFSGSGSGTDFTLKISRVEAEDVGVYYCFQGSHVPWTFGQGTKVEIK = 544

INPUT: So what's the measured Kd for this one? VRDN-02038 (antibody, V domains shown) VH: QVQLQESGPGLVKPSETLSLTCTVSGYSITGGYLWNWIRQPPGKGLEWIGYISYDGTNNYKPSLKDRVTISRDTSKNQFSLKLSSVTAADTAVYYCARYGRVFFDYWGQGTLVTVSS VL: DIVMTQSPLSLPVTPGEPASISCRSSQSIVHSNHNTYLQWYLQKPGQSPQLLIYKVSNRLYGVPDRFSGSGSGTDFTLKISRVEAEDVGVYYCFQGSHVPWTFGQGTKVEIK
OUTPUT: 649

INPUT: Also VRDN-02016 (antibody, V domains shown) VH: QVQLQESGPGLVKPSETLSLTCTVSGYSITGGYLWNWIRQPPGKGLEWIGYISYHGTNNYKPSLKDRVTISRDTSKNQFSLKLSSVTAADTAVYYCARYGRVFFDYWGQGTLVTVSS VL: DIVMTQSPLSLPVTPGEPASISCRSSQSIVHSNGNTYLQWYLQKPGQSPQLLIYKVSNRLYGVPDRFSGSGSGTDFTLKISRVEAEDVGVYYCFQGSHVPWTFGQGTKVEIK ?
OUTPUT: 346
